Hey, just so you know, these numbers are from ChEMBL document CHEMBL1129205.

# System: HuT78
# Assay Summary: Compound was tested for inhibition of MAdCAM-1/alpha-4 beta-7 mediated cell adhesion to T-cell lymphoma, HUT78 cells
# Assay type: functional, cell-based
# Protocol Conditions: Homo sapiens

# Smiles Notation, IC50
records = [
    ("CC(C)C[C@H](NC(=O)[C@H](CO)NC(=O)[C@@H](NC(=O)[C@H](CC(=O)O)NC(=O)[C@H](CC(C)C)NC(=O)C(C1CCCCC1)C1CCCCC1)[C@@H](C)O)C(N)=O", "> 1 mM"),
    ("CCCC(CCC)C(=O)N[C@@H](CC(C)C)C(=O)N[C@@H](CC(=O)O)C(=O)N[C@H](C(=O)N[C@@H](CO)C(=O)N[C@@H](CC(C)C)C(N)=O)[C@@H](C)O", "> 1 mM"),
    ("CC(C)C[C@H](NC(=O)[C@H](CO)NC(=O)[C@@H](NC(=O)[C@H](CC(=O)O)NC(=O)[C@H](CC(C)C)NC(=O)Cc1ccccc1)[C@@H](C)O)C(N)=O", "> 1 mM"),
]
